tested on: MS2 coat protein; assay: apparent KD of MS2 coat protein; designed switch direction (-1 OFF switch, 1 ON switch): 1; higher = weaker reporter binding; conditions: input ligand: FMN 200 uM
Let's look at some sequences and their measured apparent KD of MS2 coat protein.
Provide only the numeric value, understood in nM.

Use the examples below as a reference point.
{"Chain Sequence": "GCAGGACGGUAAAACAUCUCACAUGAGGAUCACCCAUGUUGUGAGGAUAUGGAUCCUAAUUGGAUCCAGAAGGCACGGUCCUGC [Fiskers NG3ss - 30] (Eterna round: R96, puzzle: Same State NG 3)", "Uom": "nM", "apparent KD of MS2 coat protein": 24.9}
{"Chain Sequence": "GGAGCCGGCCUAGGAUAUUUCAUUUUAAAACAUGAGGAUCACCCAUGUAGGCCAGAAGGCCUUGGGAAGAAGGAGGUCGGCUCC [Loop Effect - U24,U25,U26] (Eterna round: R96, puzzle: Same State NG 2)", "Uom": "nM", "apparent KD of MS2 coat protein": 17.4}
{"Chain Sequence": "AUUGCUUACGCAGGAUAUGAUGCGGAAACUGCGUCAGAAGGGUGAACAGAAUCGUUGCAAGAAGACAUGAGGAUCACCCAUGUC [SameState NG1 #96] (Eterna round: R96, puzzle: Same State NG 1)", "Uom": "nM", "apparent KD of MS2 coat protein": 33.9}
{"Chain Sequence": "AAAAGCGACGUAGGAUAUCCUCUACAUGCGUAAGGAGAAGGAUGCGCAACAUGAGGAUCACCCAUGUAAAACCAGCACUACUGG [Zalaendi] (Eterna round: R96, puzzle: Same State NG 1)", "Uom": "nM", "apparent KD of MS2 coat protein": 53.1}
{"Chain Sequence": "GGUGCAAUAAACGCCUACAUGAGGAUCACCCAUGUAUGUAGGCAGGAUAUCGUUUGCAAAGCAAACGAGAAGGGCUAUAGUACC [Mat - Same State NG 3 - JL Mod - D44] (Eterna round: R96, puzzle: Same State NG 3)", "Uom": "nM", "apparent KD of MS2 coat protein": 56.2}
{"Chain Sequence": "GCUGGAAACCACAUGAGGAUCACCCAUGUUCCGGAAACGGCGCAGGAUAUCUGUCCGAAAAGGUCAGAGAAGGGUGAAACCAGC [Fiskers NG3ss - 80] (Eterna round: R96, puzzle: Same State NG 3)", "Uom": "nM", "apparent KD of MS2 coat protein": 600}

Fill in: apparent KD of MS2 coat protein of GAGUGGUGGAGAGGAUAUACAUUGAUAAUCACUGUAGAAGGUUCUAACAUGAGGAUCACCCAUGUAGGACUAUUCCUGAGAGUU [Parity 53 - Jieux - Same State NG 1] (Eterna round: R96, puzzle: Same State NG 1) is ___
11.6

Fill in: apparent KD of MS2 coat protein of AGCUAUCGAAAACGAUAGCAAAAGCAUGUACAUGAGGAUCACCCAUGUCAUGUACAAGCUUUUUGCUCGUCUUAAAA [JL zipper 23] (Eterna round: R96, puzzle: Sensor for hsa-mir-208a) is ___
919

---

tested on: MS2 coat protein; test: apparent KD of MS2 coat protein; designed switch direction (-1 OFF switch, 1 ON switch): -1; higher = weaker reporter binding; settings: input ligand: none
Would you please tag the item True when its apparent KD of MS2 coat protein is 70 nM or above, and False when it is below?

{"Chain Sequence": "UGUUGUUACGCAGGAUAUGUAUGAGGAUCACCCAUAAGAGUAUAUUUACCAUGAGGAUCACCCAUGUAGAAGGGCGGGUUAACA [pwkr exNG2 2xF5 1xFMN.10] (Eterna round: R96, puzzle: Exclusion NG 2)", "Qualitative Label": "True"}
{"Chain Sequence": "UUUUUAGAUGAAGGAUAUACUUAACAUGAGGAUCACCCAUGUGGUGUUGUGAGUGAGUGAGUUUAGUAGAAGGUCAAUUAUUUU [JMF's solution 21] (Eterna round: R96, puzzle: Exclusion NG 2)", "Qualitative Label": "True"}
{"Chain Sequence": "CGUCAACAUGAGGAUCACCCAUGUUAGGAUAUAGAGCCAGGGCACGACGCUAACCAGUCUAGAAGGGACGUGGG [Eternabot (Original) Solution 5] (Eterna round: R97, puzzle: Exclusion 1)", "Qualitative Label": "False"}
{"Chain Sequence": "GUGGUACAUGAGGAUCACCCAUGUGAGGAUAUGUCUGUCUGUUGGUUUCGGCGGGCGGGCAGAAGGCGCGUCGC [-27.3, -25.1 kcal, 16% A] (Eterna round: R97, puzzle: Exclusion 1)", "Qualitative Label": "False"}
{"Chain Sequence": "AUCGUGCAGCUUUGCUGUACGAGUACAUGAGGAUCACCCAUGUAGGAUAUGGUACGCUUUGCGUGCUAGAAGGAUAUGCGUUUG [EX ENG3 1.45] (Eterna round: R96, puzzle: Exclusion NG 3)", "Qualitative Label": "False"}

Quick check: does CUGCUCCGUGUAGGAUAUGCGCGCAACCAACGCGCAGAAGGACAUGAGGAUCACCCAUGUAUGUUAUUAUCACGUGAAGCGUCC [Design 30] (Eterna round: R96, puzzle: Exclusion NG 1) have apparent KD of MS2 coat protein greater than or equal to 70 nM?
False

Quick check: does GCGCCAUCGUGAGAUGGCGUAAUUACAUGAGGAUCACCCAUGUAGGAUAUCGAUUGCUUUGCAGUCGAGAAGGGCAAGGUUUGU [JL ENG3 3.84] (Eterna round: R96, puzzle: Exclusion NG 3) have apparent KD of MS2 coat protein greater than or equal to 70 nM?
False

Quick check: does AAUUAACAUCAGGAUAUGACUAGCGAUAGCUAGUCAGAAGGGAUGACAUGAGGAUCACCCAUGUGAUCAAUUAA [E6/2-A4] (Eterna round: R97, puzzle: Exclusion 6) have apparent KD of MS2 coat protein greater than or equal to 70 nM?
True

Quick check: does CCGACCUGAGGAUAUAGCGUCCGCGACAUGAGGAUCACCCAUGUCCCUCAUAACGUAAAACUAGAAGGUAGAGUCG [Eternabot (L1) Solution 75] (Eterna round: R97, puzzle: Exclusion 5) have apparent KD of MS2 coat protein greater than or equal to 70 nM?
False

Quick check: does UUGUUCCGUGUAGGAUAUUGGUCUCCCUCGGGCCGAGAAGGACAUGAGGAUCACCCAUGUAUGCUAUUAUCGCGCGUGGCGCAU [Design 92] (Eterna round: R96, puzzle: Exclusion NG 1) have apparent KD of MS2 coat protein greater than or equal to 70 nM?
False

Quick check: does GACUGGACAGGAUAUGUUCUUGAGCACUUGAGGAUCACCCAAGUCAUCAAGAACUCAGGCACAGAAGGGUUUAUGC [salish99_ex5_r4_011] (Eterna round: R97, puzzle: Exclusion 5) have apparent KD of MS2 coat protein greater than or equal to 70 nM?
False

Quick check: does GUGGUGGGUUUUCCGAGUGACAUGAGGAUCACCCAUGUGUUAGUUUGAGGUAUCAAGCGAAUGGCUCGUCUUAUGUG [JR_SV3TOV1_Sub046] (Eterna round: R96, puzzle: Sensor v3, turn-off variant 1) have apparent KD of MS2 coat protein greater than or equal to 70 nM?
True

Quick check: does AGGUCACAUGAGGAUCACCCAUGUCAGGAUAUCGUCACUGGAGCUGCGGCUCCAGUGACGAGAAGGGACAAUUA [E1/6-A3] (Eterna round: R97, puzzle: Exclusion 1) have apparent KD of MS2 coat protein greater than or equal to 70 nM?
True

---

system: MS2 coat protein; assay: apparent KD of MS2 coat protein, switch ON state; designed switch direction (-1 OFF switch, 1 ON switch): -1; higher = weaker reporter binding; conditions: FMN input: 0 or 200 uM; Eterna round: R93 (includes R88 designs)
Would you please tag the item MET when its apparent KD of MS2 coat protein is 30 nM or above, and NOT MET when it is below?

{"Chain Sequence": "GAAAACAGAGGAUAUACAAAAUUGACACGAAAGGUGCAAAAACAUGAGGAUCACCCAUGUAGAAGGCUGAAGAA [Meechl MS2 Ex2 3]", "Qualitative Label": "NOT MET"}
{"Chain Sequence": "AACAGUACAGGAUAUACAUGAGGAUCACCCAUGUGAAUAAAUAGUGGCGUACCACAAAGUAGAAGGGUACUGGA [Mat - Exclusion 3 - JL mod - D25]", "Qualitative Label": "NOT MET"}
{"Chain Sequence": "AAAAAUCGAGGAUAUACAUGAGGAUCACCCAUGUAAAAAAAAAAAAAGGGAAAAAAAAGUAGAAGGCGAAAAAA [Sekhemre-Heruhirmaat Intef VII]", "Qualitative Label": "MET"}
{"Chain Sequence": "CUCUUGUCAGGAUAUCUAAGAAAAGAAAAGAAAGAAAAGAAAGAGAAGGGACAUGAGGAUCACCCAUGUAAGAA [EteRNA is fun!]", "Qualitative Label": "MET"}
{"Chain Sequence": "ACAUGUACAGGAUAUACGUGGAAAAAAAAAAAAAAAAAACUACAUGAGGAUCACCCAUGUAGAAGGGUACAUGA [Ex2 Design 194: Random 12C]", "Qualitative Label": "NOT MET"}
{"Chain Sequence": "AAAAAAGGAGGAUAUACGAACAUGUCAAAAGACGUGAAGGGACAUGAGGAUCACCCAUGUAGAAGGCUUAAAAA [JL Stem Breaker 4]", "Qualitative Label": "MET"}
{"Chain Sequence": "AAAAGCACAGGAUAUACAAGGAUAUGACGAAAGUCAUAAAAACAUGAGGAUCACCCAUGUAGAAGGGUGCAAAA [Mod of Meechl's... 64% 3]", "Qualitative Label": "MET"}
{"Chain Sequence": "UAUAACGAAGGAUAUACUAACGAAACUAAUGCAUAUAUAUAACAUGAGGAUCACCCAUGUAGAAGGUCGAGAAU [JR_Exc002_Sub011]", "Qualitative Label": "NOT MET"}
{"Chain Sequence": "AAAAAGGAAGGAUAUACGAACAUGUCGAAAGACGUGAAGGGACAUGAGGAUCACCCAUGUAGAAGGUUCAAAAA [Mat - Exclusion 2 - JL mod - D80]", "Qualitative Label": "MET"}
{"Chain Sequence": "AAGAACCUAGGAUAUACAAAAUAAAAGAAAAGAAAGAAAGAACAUGAGGAUCACCCAUGUAGAAGGAGGAAGAA [Renseneb]", "Qualitative Label": "MET"}

Quick check: does AUCAUGUUAGGAUAUAUAAGAAAAGAAAAGAAAGAAAAGAAAUAGAAGGAACAUGAGGAUCACCCAUGUAAGAA [EteRNA is fun!] have apparent KD of MS2 coat protein greater than or equal to 30 nM?
NOT MET

Quick check: does AAAAAACAUGAGGAUCACCCAUGUGAGGAUAUGAAAUUACUAAGACAACUGUAAUCAAUCAGAAGGCACAACAA [JR_Exc--1_Sub1207] have apparent KD of MS2 coat protein greater than or equal to 30 nM?
NOT MET

These measurements were taken from the supplement of paper PMC9170038.
